Tested on: A498
Experiment: Growth inhibition of human A498 cells incubated for 48 hrs by sulforhodamine B assay
Format: functional, cell-based
Details: A498, 48 h
measured.property: IC50 (nM)
State the answer as a number, implicitly in nM.

Briefly, IC50 measured for COc1cc(Cl)cc(-c2nn(-c3cccc(NC(=O)Nc4cc(C(F)(F)F)cc(C(F)(F)F)c4)c3)cc2-c2ccncc2)c1 : 390

---

System: IGROV-1
Assay: Growth inhibition of human IGROV1 cells incubated for 48 hrs by sulforhodamine B assay
Format: functional, cell-based
Conditions: IGROV-1, 48 h, read-out: TGI
measured.property: TGI (µM)
Numbers only; they are read as µM.

Some solved entries appear below for comparison.
- structure.smiles: "CNC(=O)c1cc(Oc2ccc(NC(=O)Nc3ccc(Cl)c(C(F)(F)F)c3)cc2)ccn1"
  units.symbol: "µM"
  TGI: 10
- structure.smiles: "O=C(Nc1cccc(-n2cc(-c3ccncc3)c(-c3cc(O)cc(Cl)c3)n2)c1)Nc1ccc(Cl)c(Cl)c1"
  units.symbol: "µM"
  TGI: 92.3

// assay IGROV-1, entry COc1cc(Cl)cc(-c2nn(-c3cccc(NC(=O)Nc4ccc(Cl)c(C(F)(F)F)c4)c3)cc2-c2ccncc2)c1 , TGI value = 29.1
